tgt: Steroidogenic factor 1 (Homo sapiens)
assaySummary: SF-1 ligand-binding domain transactivation enhancers – cell-based, CHO-K1, Gal4-SF-1 LBD, luciferase luminescence, primary screen (AID 522)
conditionInfo: CHO-K1 Gal4-SF-1 LBD luciferase reporter; at 10 µM; % increase over DMSO SF-1-specific signal
Screen size: about 65,000 compounds; about 1,200 (1.8%) were called active.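 The calls were made as follows: active = activation above the mean activation of all tested compounds plus 3 SD (cut at about 50% in these data); inactive = the rest.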 The entries come from a sample that favours actives as a whole.
Outcome codes: 1 (active), -1 (inactive)

compound=COc1ccccc1OCCC(=O)OCC(=O)NC(=O)NC(C)(C)C tgt="Steroidogenic factor 1 (Homo sapiens)" qualitativelabel=-1
compound=Cc1ccccc1Cn1c(=O)[nH]c2ccccc21 tgt="Steroidogenic factor 1 (Homo sapiens)" qualitativelabel=-1
compound="Cc1ccc(C2CC(=O)NC(SCC(=O)OCc3ccccc3)=C2C#N)o1 (configuration not stated)" tgt="Steroidogenic factor 1 (Homo sapiens)" qualitativelabel=-1
compound="Cc1cccc(N2CCN(S(=O)(=O)c3ccc4c(c3)c(=O)n(C)c(=O)n4C)CC2C)c1 (configuration not stated)" tgt="Steroidogenic factor 1 (Homo sapiens)" qualitativelabel=-1
compound=CCN1C(=O)/C(=C2\SC(N3CCCCC3)=NC2=O)c2ccccc21 tgt="Steroidogenic factor 1 (Homo sapiens)" qualitativelabel=1
compound="COc1ccc(CCN(C)C(=O)C2CCCN(Cc3ccc(OC)c(OC)c3)C2)cc1OC (configuration not stated)" tgt="Steroidogenic factor 1 (Homo sapiens)" qualitativelabel=-1
compound=Cn1nnnc1SCC(=O)N1CCN(Cc2ccccc2)CC1 tgt="Steroidogenic factor 1 (Homo sapiens)" qualitativelabel=-1

---

tgt: Steroidogenic factor 1 (Homo sapiens) (UniProt Q13285)
Sequence (Q13285 whole entry, looked up, the tested form may be a part): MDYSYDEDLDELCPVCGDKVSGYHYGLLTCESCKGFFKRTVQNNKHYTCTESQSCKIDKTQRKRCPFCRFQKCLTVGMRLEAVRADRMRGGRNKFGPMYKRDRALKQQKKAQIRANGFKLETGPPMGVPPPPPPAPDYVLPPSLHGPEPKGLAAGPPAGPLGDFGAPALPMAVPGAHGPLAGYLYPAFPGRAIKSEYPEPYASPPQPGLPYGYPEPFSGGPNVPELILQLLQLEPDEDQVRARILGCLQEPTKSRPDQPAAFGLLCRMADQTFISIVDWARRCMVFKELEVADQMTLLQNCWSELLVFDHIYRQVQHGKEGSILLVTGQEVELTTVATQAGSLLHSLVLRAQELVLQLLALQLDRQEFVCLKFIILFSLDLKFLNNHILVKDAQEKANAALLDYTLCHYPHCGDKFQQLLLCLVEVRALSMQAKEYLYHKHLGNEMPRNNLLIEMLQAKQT
assaySummary: SF-1 ligand-binding domain transactivation enhancers – cell-based, CHO-K1, Gal4-SF-1 LBD, luciferase luminescence, primary screen (AID 522)
conditionInfo: CHO-K1 Gal4-SF-1 LBD luciferase reporter; at 10 µM; hits give high values; % increase over DMSO SF-1-specific signal
Out of some 65,000 compounds screened, about 1,200 (1.8%) were called active. The full list was thinned out, with actives kept by preference.
propertyLabel: activation (%)

molecularstring=COC(=O)c1cc(Cl)c(NC(=O)c2ccco2)cc1OC value=-3
molecularstring=CCCCCNC(=O)Cc1ccc(OC)cc1 value=-9.8
molecularstring=CCOC(=O)c1c(C)[nH]c(C(=O)COc2ccc3c(c2)OCO3)c1C value=28.5

---

tgt: Steroidogenic factor 1 (Homo sapiens)
assaySummary: SF-1 ligand-binding domain transactivation enhancers – cell-based, CHO-K1, Gal4-SF-1 LBD, luciferase luminescence, primary screen (AID 522)
conditionInfo: CHO-K1 Gal4-SF-1 LBD luciferase reporter; at 10 µM; hits give high values; % increase over DMSO SF-1-specific signal
The campaign covered roughly 65,000 compounds. About 1,200 (1.8%) were called active. This excerpt belongs to a sample that is enriched for actives.
propertyLabel: activation (%)

compound="CC1C(c2ccccc2)=[N+]([O-])C2(CCCC2)N1O (centres undefined)" propertylabel=activation value=18.6
compound=CCc1ccccc1N(CC(=O)NCCSCc1ccco1)S(C)(=O)=O propertylabel=activation value=4.6
compound=O=C(CSc1nnc2ccccn12)c1ccccc1 propertylabel=activation value=55.3
compound=CS(=O)(=O)N1CCN(C(=O)Cc2ccccc2)CC1 propertylabel=activation value=3.5
compound=N#Cc1c(NC(=O)CCCN2C(=O)c3ccccc3C2=O)oc(-c2ccccc2)c1-c1ccccc1 propertylabel=activation value=12.7
compound="CC(NC(=O)c1cc(-c2ccccc2)on1)c1ccccc1 (centres undefined)" propertylabel=activation value=1.6
compound=O=C(Cc1ccccc1)n1nc(-c2ccccc2)nc1NCc1ccco1 propertylabel=activation value=50.5
compound="O=C(CSc1nnc(-c2ccc(NS(=O)(=O)c3ccccc3)cc2)o1)NCC1CCCO1 (centres undefined)" propertylabel=activation value=-0.8
compound="O=C(Nc1ccc(-c2nnc(-c3ccccc3)o2)cc1)C1CCCO1 (centres undefined)" propertylabel=activation value=65.9
compound=CN(C(=O)CSc1nnnn1-c1ccccc1)C1CCCCC1 propertylabel=activation value=34.6
compound=CCc1ccccc1NC(=O)c1cccs1 propertylabel=activation value=-5.6
compound=O=C(Cn1cnc2c(cnn2-c2ccc(F)cc2)c1=O)NCCc1ccccc1 propertylabel=activation value=-19.4
compound="CC(=NCC1CCCO1)c1c(O)[nH]c(=O)[nH]c1=O (centres undefined)" propertylabel=activation value=12.9
compound="COc1cccc(N2CCN(C3CC(=O)N(c4ccc(Cl)cc4)C3=O)CC2)c1 (centres undefined)" propertylabel=activation value=-14.7
compound=Cc1ccc(C(=O)Nc2nnc(-c3cccs3)s2)cc1C propertylabel=activation value=80.9
compound=N#CC(=C1SC=CS1)c1nc(-c2ccccc2)cs1 propertylabel=activation value=80.9
compound=COc1ccc(C(=O)Nc2ccc3c(c2)OCO3)cc1OC propertylabel=activation value=55
compound=Cc1ccc(C(=O)Nc2ccc3c(c2)OCO3)cc1S(=O)(=O)N1CCCCC1 propertylabel=activation value=22.6
compound="CC(C)C(NC(=O)OCc1ccccc1)C(=O)OCC(=O)N1C(C)CCCC1C (centres undefined)" propertylabel=activation value=-2.9
compound=O=C(Cn1cnc2c(cnn2-c2ccccc2)c1=O)NCc1ccccc1 propertylabel=activation value=70.3
compound=O=C(c1cc(-c2ccc(O)cc2)on1)N1CCCc2ccccc21 propertylabel=activation value=47.5
compound=CCSc1nc(C)nc2c1oc1ccccc12 propertylabel=activation value=-10.2
compound=CCc1nnc(NC(=O)CCC(=O)O)s1 propertylabel=activation value=-8.1
compound=CCOc1cc(N2CCOCC2)c(OCC)cc1NC(=O)COc1cccc2cccnc12 propertylabel=activation value=8.2
compound=COc1ccc(N2CCN(C(=O)CSc3nnc4ncccn34)CC2)cc1 propertylabel=activation value=-2.5
compound=Cc1cccc(-n2ncc3c(N4CCc5ccccc54)ncnc32)c1 propertylabel=activation value=33.4
compound="CCOC(=O)C1CCCN(C(=O)c2ccc(CS(=O)(=O)c3ccc(Br)cc3)o2)C1 (centres undefined)" propertylabel=activation value=19.7
compound=Cc1occc1C(=O)Nc1nnc(-c2ccncc2)s1 propertylabel=activation value=20.4
compound=Cc1ccc(C(=O)Nc2nnc(-c3ccncc3)s2)o1 propertylabel=activation value=21.8
compound=Cn1c(=NC(=O)C2CC2)sc2cc(F)cc(F)c21 propertylabel=activation value=-2
compound=Cc1cc(C)nc(NC(=O)Nc2ccccc2C(F)(F)F)n1 propertylabel=activation value=14.8
compound=COC(=O)c1sc(NC(=O)c2ccc(OC)cc2OC)nc1C propertylabel=activation value=-57.8
compound=CCc1nc(Nc2ccc3nccnc3c2)c2oc3ccccc3c2n1 propertylabel=activation value=50.3
compound=c1ccc(CSc2nnc(-c3ccco3)n2Cc2ccccc2)cc1 propertylabel=activation value=76
